Assayed Target: HEK cells stably transfected with tetracycline inducible hNR1 and hNR2A (Homo sapiens, UniProt Q05586+Q12879)
Construct: expressed in transfected cells; host or cells: HEK cells, stably transfected, tetracycline/doxycycline inducible
Sequence (Q12879 23-1464, other chains not shown): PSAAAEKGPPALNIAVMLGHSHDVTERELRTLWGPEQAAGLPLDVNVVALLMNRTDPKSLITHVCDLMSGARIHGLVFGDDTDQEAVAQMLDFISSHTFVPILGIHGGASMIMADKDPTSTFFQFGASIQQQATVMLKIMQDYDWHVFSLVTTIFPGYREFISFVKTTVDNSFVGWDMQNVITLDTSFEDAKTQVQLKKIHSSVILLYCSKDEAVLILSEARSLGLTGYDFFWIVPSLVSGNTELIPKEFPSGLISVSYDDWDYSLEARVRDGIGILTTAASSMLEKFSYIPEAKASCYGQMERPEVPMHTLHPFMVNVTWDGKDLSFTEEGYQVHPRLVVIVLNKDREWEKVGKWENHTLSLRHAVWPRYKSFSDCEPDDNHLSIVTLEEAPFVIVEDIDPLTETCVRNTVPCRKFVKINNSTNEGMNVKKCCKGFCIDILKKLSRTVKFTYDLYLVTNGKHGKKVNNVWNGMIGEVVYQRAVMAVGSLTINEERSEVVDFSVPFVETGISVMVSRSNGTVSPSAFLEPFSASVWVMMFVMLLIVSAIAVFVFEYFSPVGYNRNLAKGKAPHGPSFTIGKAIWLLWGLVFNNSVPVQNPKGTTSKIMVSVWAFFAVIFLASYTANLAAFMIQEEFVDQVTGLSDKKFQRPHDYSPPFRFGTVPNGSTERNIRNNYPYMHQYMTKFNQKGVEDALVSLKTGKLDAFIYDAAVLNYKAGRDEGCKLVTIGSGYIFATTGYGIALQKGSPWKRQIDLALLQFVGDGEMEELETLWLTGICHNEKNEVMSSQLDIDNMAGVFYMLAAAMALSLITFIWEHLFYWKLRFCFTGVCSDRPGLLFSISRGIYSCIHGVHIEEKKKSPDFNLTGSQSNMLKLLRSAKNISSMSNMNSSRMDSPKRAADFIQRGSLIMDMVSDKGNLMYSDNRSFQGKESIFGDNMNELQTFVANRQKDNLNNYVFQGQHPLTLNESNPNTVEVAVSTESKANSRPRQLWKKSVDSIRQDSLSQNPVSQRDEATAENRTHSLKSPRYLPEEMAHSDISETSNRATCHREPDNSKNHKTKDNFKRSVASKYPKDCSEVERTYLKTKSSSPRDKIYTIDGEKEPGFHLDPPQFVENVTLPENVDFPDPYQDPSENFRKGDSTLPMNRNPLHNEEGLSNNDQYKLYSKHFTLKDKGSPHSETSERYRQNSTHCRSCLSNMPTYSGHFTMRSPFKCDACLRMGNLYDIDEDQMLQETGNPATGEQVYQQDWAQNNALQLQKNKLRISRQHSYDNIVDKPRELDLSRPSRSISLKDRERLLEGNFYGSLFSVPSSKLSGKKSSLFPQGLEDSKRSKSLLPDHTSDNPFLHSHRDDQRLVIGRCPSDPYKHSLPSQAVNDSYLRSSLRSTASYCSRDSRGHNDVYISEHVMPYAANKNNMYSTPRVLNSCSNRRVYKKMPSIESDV
Measurement Description: Assay 1: Cell-Based Assay, cytosolic calcium response to positive allosteric modulators (with 30 μM glycine and 300 nM L-glutamate, EC30)
Stated Conditions: Table 2; responses scaled relative to 100 μM L-glutamate maximal response (100%) and 0 μM L-glutamate (0%)
Quantity Measured: Max % (%)

- Molecule: "Cc1sc2nc(Cn3nc(C(F)(F)F)cc3C3CC3)cc(=O)n2c1C#N"
  Max %, %: 119
- Molecule: "CCN(Cc1cc(=O)n2c3c(sc2n1)CCOC3)c1ccc(F)cc1"
  Max %, %: 124
- Molecule: "CC(=O)c1c(C)sc2nc(Cn3nc(C4CC4)cc3C(F)(F)F)cc(=O)n12"
  Max %, %: 129
- Molecule: "CCN(Cc1cc(=O)n2c(-c3ccnc(N)c3)c(C)sc2n1)c1ccc(F)cc1"
  Max %, %: 120
- Molecule: "CCNC(=O)c1c(C)sc2nc(Cc3c(CC)ccc(F)c3F)cc(=O)n12"
  Max %, %: 124
- Molecule: "CCN(Cc1cc(=O)n2c(CC#N)c(C)sc2n1)c1ccc(F)cc1"
  Max %, %: 174
- Molecule: "CCN(Cc1cc(=O)n2c(C(C)(C)C)c(C)sc2n1)c1ccc(F)cc1"
  Max %, %: 110
- Molecule: "CCN(Cc1cc(=O)n2c(C3CC3CO)c(C)sc2n1)c1ccc(F)cc1 (single isomer, unassigned) [Example 5.19]"
  Max %, %: 141
